Data credit: paper PMC9621233

Ki values, listed per item
assayedSystem: StCA1
Construct: recombinant beta-CA, obtained in-house
procedureText: stopped-flow CO2 hydration assay, phenol red
Assay type: biochemical, Salmonella enterica subsp. enterica serovar Typhimurium
conditionParameters: […] TRIS pH […] Na2SO4, […] h preincubation, room temperature; read-out: KI (nM)^a / StCA1 (β-CA)
Could you give me the number in nM? Just the number is fine.

Some solved entries appear below for comparison.
N#CN(Cc1ccccc1)c1ccc(S(N)(=O)=O)cc1 [compound 16, 4-(N-Benzylcyanamido)benzenesulfonamide]
50.7
CCCCCCN(C#N)c1ccc(S(N)(=O)=O)cc1 [compound 11, 4-(N-Hexylcyanamido)benzenesulfonamide]
54.6
N#CN(c1ccc(S(N)(=O)=O)cc1)C1CCCCC1
69.5

-- ask API: value(readout=Ki, system=StCA1) for record CCCCCCCN(C#N)c1ccc(S(N)(=O)=O)cc1 [compound 12, 4-(N-Heptylcyanamido)benzenesulfonamide]
-- reply 58.8

-- ask API: value(readout=Ki, system=StCA1) for record CN(C#N)c1ccc(S(N)(=O)=O)cc1 [compound 8, 4-(N-Methylcyanamido)benzenesulfonamide]
-- reply 52.7

-- ask API: value(readout=Ki, system=StCA1) for record C=CCN(C#N)c1ccc(S(N)(=O)=O)cc1 [compound 15, 4-(N-Allylcyanamido)benzenesulfonamide]
-- reply 51.2

====

Ki values, listed per item
assayedSystem: hCA XIII (Homo sapiens)
Construct: gene CA13; recombinant, obtained in-house; cytosolic alpha-CA
procedureText: stopped-flow CO2 hydration assay, phenol red
Type: biochemical
conditionParameters: read-out: KI (nM)^a / hCA XIII (α-CA)

Some solved entries appear below for comparison.
CCCCCCCN(C#N)c1ccc(S(N)(=O)=O)cc1 [compound 12, 4-(N-Heptylcyanamido)benzenesulfonamide]
31.5 nM
C=CCN(C#N)c1ccc(S(N)(=O)=O)cc1 [compound 15, 4-(N-Allylcyanamido)benzenesulfonamide]
97.7 nM

Next:
-- ask Consider the compound shown here: N#CN(c1ccc(S(N)(=O)=O)cc1)C1CCCCC1 What is its recorded Ki?
-- reply 83.8 nM

====

Ki values, listed per item
assayedSystem: hCA XIII (Homo sapiens, UniProt Q8N1Q1)
Construct: gene CA13; recombinant, obtained in-house; cytosolic alpha-CA
Sequence (Q8N1Q1 whole entry): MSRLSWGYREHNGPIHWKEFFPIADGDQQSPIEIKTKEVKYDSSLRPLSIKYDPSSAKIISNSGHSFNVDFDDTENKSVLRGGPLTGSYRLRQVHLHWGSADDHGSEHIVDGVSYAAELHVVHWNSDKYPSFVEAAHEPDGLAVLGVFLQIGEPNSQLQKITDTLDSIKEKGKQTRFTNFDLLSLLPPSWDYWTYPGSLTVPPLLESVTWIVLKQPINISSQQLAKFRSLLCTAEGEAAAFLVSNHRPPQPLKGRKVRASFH
procedureText: stopped-flow CO2 hydration assay, phenol red
Type: biochemical
conditionParameters: read-out: KI (nM)^a / hCA XIII (α-CA)
Could you give me the number in nM? Just the number is fine.

-- ask Consider the molecule shown here: CCN(C#N)c1ccc(S(N)(=O)=O)cc1 [compound 9, 4-(N-Ethylcyanamido)benzenesulfonamide] What is its recorded Ki?
-- reply 476

-- ask Consider the molecule shown here: N#CN(Cc1ccccc1)c1ccc(S(N)(=O)=O)cc1 [compound 16, 4-(N-Benzylcyanamido)benzenesulfonamide] What is its recorded Ki?
-- reply 67.8

====

assayedSystem: hCA II (Homo sapiens, UniProt P00918)
Construct: gene CA2; recombinant, obtained in-house; cytosolic alpha-CA
procedureText: stopped-flow CO2 hydration assay, phenol red
Assay type: biochemical
conditionParameters: read-out: KI (nM)^a / hCA II (α-CA)
Values of Ki strictly less than 80 nM map to satisfied, and values of at least 80 nM map to not satisfied.

Some solved cases for reference:
N#CN(Cc1ccc(Br)cc1)c1ccc(S(N)(=O)=O)cc1
not satisfied
CCCCCCCCCCCCCCCCCCN(C#N)c1ccc(S(N)(=O)=O)cc1
satisfied
CCCCN(C#N)c1ccc(S(N)(=O)=O)cc1 [compound 10, 4-(N-Butylcyanamido)benzenesulfonamide]
satisfied

-- ask Hello, I'm reviewing records and need to know if Ki of C=CCN(C#N)c1ccc(S(N)(=O)=O)cc1 [compound 15, 4-(N-Allylcyanamido)benzenesulfonamide] is below 80 nM. Could you check?
-- reply satisfied
